Test system: RAW264.7
test: Antiinflammatory activity against mouse RAW264.7 cells assessed as inhibition of LPS-induced nitric oxide production at 10 uM after 24 hrs by Griess assay relative to control
Type: functional
test conditions: RAW264.7, 24 h
Documented inhibition at 10 µM across a set of compounds
measurement label: inhibition at 10 µM (%)

>>> experimental_value("COc1ccc2c(c1)O[C@H]1c3ccc(O)c(CC=C(C)C)c3OC[C@@H]21 [LICOAGROCARPIN]")
16.7
>>> experimental_value("COc1ccc([C@@H]2COc3c(ccc4c3C=CC(C)(C)O4)C2)c(O)c1")
8.5
>>> experimental_value("CC1(C)C=Cc2c(O)ccc(-c3cc4ccc(O)cc4o3)c2O1")
48.9
>>> experimental_value("O=C1C[C@@H](c2ccc(O)cc2)Oc2cc(O)ccc21 [LIQUIRTIGENIN]")
2.8
>>> experimental_value("CC(C)=CCc1cc([C@H]2Oc3c(ccc4c3C=CC(C)(C)O4)C(=O)[C@@H]2O)ccc1O")
0.3
>>> experimental_value("CC1(C)C=Cc2cc(C[C@@H](O)C(=O)c3ccc(O)cc3O)ccc2O1")
9.3
>>> experimental_value("CC1(C)C=Cc2c(ccc(-c3oc4cc(O)ccc4c3C=O)c2O)O1")
36.5
>>> experimental_value("CC1(C)C=Cc2cc([C@@H]3CC(=O)c4ccc(O)cc4O3)ccc2O1 [ABYSSINONE I]")
0
>>> experimental_value("CC1(C)C=Cc2c(cc(O)c3c(=O)c(-c4ccc(O)cc4O)coc23)O1")
5.6

====

Tested on: Homo sapiens
test: Inhibition of LPS-induced NF-kappaB (unknown origin) transactivation expressed in human SW480 cells at 10 uM administered 1 hr after LPS stimulation measured after 6 hrs by luciferase reporter gene assay relative to control
Type: cell-based
measurement label: inhibition (%)

>>> experimental_value("CC1(C)C=Cc2c(ccc(-c3coc4cc(O)ccc4c3=O)c2O)O1 [GLABRONE]")
6.4
>>> experimental_value("CC(C)=CCc1cc(/C=C/C(=O)c2ccc(O)cc2O)ccc1O [LICOAGROCHALCONE A]")
69
>>> experimental_value("CC1(C)C=Cc2cc([C@@H]3CC(=O)c4ccc(O)cc4O3)ccc2O1 [ABYSSINONE I]")
23.1
>>> experimental_value("CC(C)=CCc1cc(C[C@@H](O)C(=O)c2ccc(O)cc2O)ccc1O")
23
>>> experimental_value("C=CC(C)(C)c1cc(/C=C/C(=O)c2ccc(O)cc2)c(OC)cc1O [LICOAGROCHACONE A]")
57.2
>>> experimental_value("CC1(C)C=Cc2cc(C[C@@H](O)C(=O)c3ccc(O)cc3O)ccc2O1")
0
>>> experimental_value("CC1(C)C=Cc2c(ccc3c(=O)c(-c4ccc(O)cc4O)coc23)O1")
1.5
>>> experimental_value("CC(C)=CCc1cc2c(cc1O)OCC(c1ccc(O)c3c1OC(C)(C)C=C3)=C2")
41.6
>>> experimental_value("CC(C)=CCc1c(O)cc(O)c2c(=O)c(-c3ccc(O)cc3O)coc12")
0
>>> experimental_value("CC1(C)C=Cc2c(cc(O)c3c2OCC(c2ccc(O)cc2O)C3=O)O1 (stereo not given)")
0.1

====

Tested on: RAW264.7
test: Antiinflammatory activity against mouse RAW264.7 cells assessed as inhibition of LPS-induced nitric oxide production at 10 uM after 24 hrs by Griess assay relative to control
Assay type: functional
test conditions: RAW264.7, 24 h
measurement label: inhibition at 10 µM

>>> experimental_value("CC1(C)C=Cc2cc3cc(-c4ccc(O)cc4O)c(=O)oc3cc2O1")
"21.2%"
>>> experimental_value("CC(C)=CCc1c(O)cc(O)c2c(=O)c(-c3ccc(O)cc3O)coc12")
"10.3%"
>>> experimental_value("CC(C)=CCc1cc([C@H]2Oc3cc(O)ccc3C[C@H]2O)ccc1O")
"1.8%"
>>> experimental_value("CC1(C)C=Cc2c(ccc3c2OCc2c-3oc3cc(O)ccc23)O1")
"7.4%"
>>> experimental_value("CC(C)=CCc1cc([C@@H]2CC(=O)c3ccc4c(c3O2)C=CC(C)(C)O4)ccc1O [SHINFLAVANONE]")
"11.3%"
>>> experimental_value("CC1(C)C=Cc2c(ccc3cc(-c4ccc(O)cc4O)oc23)O1")
"14.2%"
>>> experimental_value("CC(C)=CCc1cc(C[C@@H](O)C(=O)c2ccc(O)cc2O)ccc1O")
"7.1%"
>>> experimental_value("CC1(C)C=Cc2c(ccc3c2OC[C@@H](c2ccc(O)cc2O)C3)O1 [GLABRIDIN]")
"19.8%"
>>> experimental_value("CC(C)=CCc1cc(/C=C/C(=O)c2ccc(O)c(CC=C(C)C)c2O)ccc1O [KANZONOL C]")
"12.8%"
>>> experimental_value("CC1(C)C=Cc2c(ccc(-c3cc4ccc(O)cc4o3)c2O)O1")
"21.6%"
